Where do the numbers come from? From paper PMC4924691.

- System: MD-MBA-231
- details: read-out: IC50 (MTT), MD-MBA-231; human breast carcinoma, p53 mut, 72 h
metric: IC50 (µM)
Numbers only, in µM.

I would be grateful if you could share the reported IC50 for CCc1ccc2[c](c1)[Ir-3]13([c]4cc(CC)ccc4-c4cccc[n+]41)([n+]1ccccc1-2)[n+]1ccc(Cl)c2ccc4c(Cl)cc[n+]3c4c21.F[P-](F)(F)(F)(F)F .
0.835

* * *

- tested system: p53/hDM2 PPI (Homo sapiens, UniProt Q00987)
- Sequence (Q00987 whole entry): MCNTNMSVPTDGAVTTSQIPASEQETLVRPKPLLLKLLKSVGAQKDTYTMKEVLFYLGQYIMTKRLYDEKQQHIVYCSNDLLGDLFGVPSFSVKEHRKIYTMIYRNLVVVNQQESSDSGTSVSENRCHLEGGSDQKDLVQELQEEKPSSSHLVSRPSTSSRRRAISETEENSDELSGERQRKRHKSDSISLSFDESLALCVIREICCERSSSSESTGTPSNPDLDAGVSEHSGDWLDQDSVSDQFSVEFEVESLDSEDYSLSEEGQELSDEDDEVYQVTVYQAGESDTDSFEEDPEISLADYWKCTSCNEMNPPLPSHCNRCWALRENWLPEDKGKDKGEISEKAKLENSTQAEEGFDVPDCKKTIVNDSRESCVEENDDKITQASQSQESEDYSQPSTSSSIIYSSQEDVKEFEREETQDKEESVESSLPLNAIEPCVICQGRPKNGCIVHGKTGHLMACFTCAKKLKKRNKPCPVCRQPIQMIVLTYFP
- details: read-out: IC50, decrease of BRET (p53-HaloTag / NanoLuc-hDM2); A375 cells, 6 h
metric: IC50

IC50 lookup needed for CCc1ccc2[c](c1)[Ir-3]13([c]4cc(CC)ccc4-c4cccc[n+]41)([n+]1ccccc1-2)[n+]1ccc(Cl)c2ccc4c(Cl)cc[n+]3c4c21.F[P-](F)(F)(F)(F)F [Compound 1] , thanks.
~1000 nM
